experiment: Quantitative High-Throughput drug screen in 47 multiple myeloma cell lines against the NCATS MIPE library collection: KMS34_JCRB cell viability assay (AID 1918985); settings: KMS34 myeloma viability, CellTiter-Glo ATP luminescence, 48 h; series mostly up to 45.8 µM; further: nearly all actives have a fitted effect of over 40% in size
Inconclusive results are not listed. Active and inactive are the calls of the source. The call rests on the fitted dose curve; in most records, active means well fitted cell-killing curve with a large enough effect; inconclusive means small, poorly fitted or top-dose-only effect, or effect the other way; inactive means no such curve, though single readings can be large or run the other way.
Respond using exactly one of the listed classes: true (1) = active, false (0) = inactive

I'd appreciate the recorded outcome for C[C@@H](Oc1cc(-n2cnc3ccc(CN4CCN(C)CC4)cc32)sc1C(N)=O)c1ccccc1C(F)(F)F from this test.
true (1)

# repeat for CC(C)Nc1cc(C(F)(F)F)cc2nc(NC(=O)c3cccnc3)nn12
false (0)

# repeat for CC1COC2(CCN(c3nc(=O)c4cc(C(F)(F)F)cc([N+](=O)[O-])c4s3)CC2)O1 (centres undefined)
false (0)

# repeat for O=C(CCCCCCC(=O)Nc1ccc([C@H]2O[C@@H](CSc3nc(-c4ccccc4)c(-c4ccccc4)o3)C[C@@H](c3ccc(CO)cc3)O2)cc1)NO
true (1)

# repeat for O=C(NCCCNc1nc(Nc2cccc(NC(=O)N3CCCC3)c2)ncc1I)c1cccs1
true (1)

# repeat for CCOc1ccccc1OCCNC(C)Cc1ccc(OC)c(S(N)(=O)=O)c1 (centres undefined)
false (0)

# repeat for Clc1cccc(-c2nnnn2Cc2cccnc2)c1Cl
false (0)

# repeat for C=CC(=O)Nc1cc2c(Nc3ccc(F)c(Cl)c3)ncnc2cc1C#CC(C)(C)N1CCN(C)CC1
true (1)

# repeat for CC(C)(O)CCc1ccc(OCc2cc(-c3cccc(OC(F)F)c3)c3ncccc3c2)cc1
false (0)

---

test: Quantitative High-Throughput drug screen in 47 multiple myeloma cell lines against the NCATS MIPE library collection: OPM1_PLB cell viability assay (AID 1918989); details: CellTiter-Glo, 48 h; series mostly up to 45.8 µM; further: nearly all actives have a fitted effect of over 40% in size
Inconclusive results are not listed. Active and inactive are the calls of the source. The call rests on the fitted dose curve; in most records, active means well fitted cell-killing curve with a large enough effect; inconclusive means small, poorly fitted or top-dose-only effect, or effect the other way; inactive means no such curve, though single readings can be large or run the other way.
Respond using exactly one of the listed classes: active, inactive

I'd appreciate the recorded outcome for COc1cccc2c(NCc3ccccc3)nc(-n3c(N)nc4ccccc43)nc12 from this test.
active

# repeat for COc1ccc2c(c1)CC[C@@H](CN(C)CC(=O)O)[C@H]2c1ccccc1
active

# repeat for Cc1cc(C(=O)N2CCN(c3cccc(Cl)c3)CC2)n(-c2ccccc2)n1
active

# repeat for C[C@@H]1COC(Nc2ccc3ncnc(Nc4ccc(OCc5nccs5)c(Cl)c4)c3c2)=N1
active

# repeat for COc1cc2c(Oc3ccc4[nH]c(C)cc4c3F)ncnc2cc1OCCCN1CCCC1
active

# repeat for NC(=O)c1cccc2cn(-c3ccc([C@@H]4CCCNC4)cc3)nc12
inactive

# repeat for COc1ccc(OC)c(-c2nnc3ccc(-c4ccc(OC)c(O[C@@H]5CCOC5)c4)nn23)c1
active

# repeat for CC(=O)OCC(=O)[C@@]1(O)[C@H](C)C[C@H]2[C@@H]3C=C(C)C4=Cc5c(cnn5-c5ccccc5)C[C@]4(C)[C@@H]3[C@@H](O)C[C@@]21C
active

# repeat for CC[C@H]1CN2CCc3cc(OC)c(OC)cc3[C@H]2C[C@@H]1C[C@@H]1NCCc2cc(OC)c(OC)cc21
active

---

Task for the reader: assign each of the following molecules its reported Potency.
test: Quantitative High-Throughput drug screen in 47 multiple myeloma cell lines against the NCATS MIPE library collection: KMS21BM_JCRB cell viability assay (AID 1918974); conditions: ATP luminescence, 48 h; further: potency means the concentration at half of the fitted maximal effect
Results filed as inconclusive are left out. The source made the active and inactive calls. The call rests on the fitted dose curve; in most records, active means well fitted cell-killing curve with a large enough effect; inconclusive means small, poorly fitted or top-dose-only effect, or effect the other way; inactive means no such curve, though single readings can be large or run the other way.

Report Potency for Cc1ccc(C(N)=O)cc1Nc1nccc(-c2cn(C(C)C)c3cnccc23)n1 please.
935 nM (active)

# repeat for Cc1ccc(C(=O)Nc2cccc(C(F)(F)F)c2)cc1-c1ccc2nc(NCCN3CCOCC3)ncc2c1
1660 nM (active)

# repeat for Cc1[nH]nc2ccc(-c3cncc(OC[C@@H](N)Cc4ccccc4)c3)cc12
935 nM (active)

# repeat for CN(C1CCc2c(c3ccccc3n2CC(=O)O)C1)S(=O)(=O)c1ccc(F)cc1 (stereo not given)
418 nM (active)

# repeat for O=C(C=Cc1cccc(S(=O)(=O)Nc2ccccc2)c1)NO
540 nM (active)

# repeat for CC(C)CC(=O)Nc1n[nH]c2c1CN(C(=O)C1CCN(C)CC1)C2(C)C
29.6 nM (active)

# repeat for O=C(Nc1cc(C(F)(F)F)cc(C(F)(F)F)c1)c1cc(Cl)ccc1O
526 nM (active)

# repeat for COc1ccc(F)c(F)c1C(=O)c1cnc(NC2CCN(S(C)(=O)=O)CC2)nc1N
296 nM (active)

# repeat for CC[C@H]1CN2CCc3cc(OC)c(OC)cc3[C@H]2C[C@@H]1C[C@@H]1NCCc2cc(OC)c(OC)cc21
264 nM (active)

# repeat for O=C(O)C1(Cc2cccc(Nc3nccs3)n2)CCC(Oc2cccc(Cl)c2F)CC1 (stereo not given)
23.5 nM (active)

# repeat for Nc1ncnc2c1c(-c1cnc3[nH]ccc3c1)nn2C1CCCC1
1050 nM (active)

# repeat for Cn1cc(-c2ccncc2)c(-c2ccc(OCc3ccc4ccccc4n3)cc2)n1
3320 nM (active)

# repeat for CN1CCN(c2ccc3nc(-c4c(N)c5c(F)cccc5[nH]c4=O)[nH]c3c2)CC1
4690 nM (active)

# repeat for COc1ccc(OC)c(-c2nnc3ccc(-c4ccc(OC)c(O[C@@H]5CCOC5)c4)nn23)c1
7430 nM (active)

# repeat for CC(=O)Nc1nc(C)c(-c2ccc(Cl)c(S(=O)(=O)NCCO)c2)s1
1660 nM (active)

# repeat for Cc1ccc2nc(NC(=O)CSc3nc4c(c(=O)n3-c3ccccc3)SCC4)sc2c1
11800 nM (active)

# repeat for COC(=O)Nc1nc2ccc(C(=O)c3ccc(F)cc3)cc2[nH]1
296 nM (active)

# repeat for COc1cccc2nc(-c3cccs3)nc(NN3C(=O)C=C(C)C3=O)c12
235 nM (active)

# repeat for CNC(=O)c1nn(C)c2c1C(C)(C)Cc1cnc(Nc3ccc(N4CCN(C)CC4)cc3)nc1-2
132 nM (active)

# repeat for COc1ccc2c(c1)CC[C@@H](CN(C)CC(=O)O)[C@H]2c1ccccc1
5260 nM (active)

---

experiment: Quantitative High-Throughput drug screen in 47 multiple myeloma cell lines against the NCATS MIPE library collection: MM1S_ATCC cell viability assay (AID 1918980); conditions: MM1S myeloma viability, CellTiter-Glo ATP luminescence, 48 h; series mostly up to 45.8 µM; further: potency means the concentration at half of the fitted maximal effect; nearly all actives have a fitted effect of over 45% in size
Results filed as inconclusive are left out. Active and inactive are the calls of the source. Calls come from the whole dose curve; as a rule, active = well fitted cell-killing curve with a large enough effect; inconclusive = small, poorly fitted or top-dose-only effect, or effect the other way; inactive = no such curve, though single readings can be large or run the other way.
TEST READOUT: Potency

Report Potency for Cc1nc(N)ncc1-c1nc(N2CCOCC2)c2sc(C(C)(C)O)cc2n1 please.
0.743 µM (active)

# repeat for Cc1ccc(S(=O)(=O)Nc2cc(Cl)ccc2C(=O)Nc2nc(-c3ccccc3)cs2)cc1
14.8 µM (active)

# repeat for COc1cc(-c2nn(C3CCC(N4CCN(C(C)=O)CC4)CC3)c3ncnc(N)c23)ccc1NC(=O)c1cc2ccccc2n1C (stereo not given)
5.9 µM (active)

# repeat for Cc1cc(Nc2cc(N3CCN(C)CC3)nc(Sc3ccc(NC(=O)C4CC4)cc3)n2)n[nH]1
13.2 µM (active)

# repeat for CC(=O)Nc1nc(C)c(-c2ccc(Cl)c(S(=O)(=O)NCCO)c2)s1
1.48 µM (active)

---

test system: UISO; test: qHTS assay to identify novel small-molecules to repurpose for Merkel cell carcinoma treatment (AID 1296009); conditions: MCC and control cell lines, CellTiter-Glo viability, 72 h; series mostly up to 46 µM; further: nearly all actives have a fitted effect of over 60% in size
Records with an inconclusive call do not appear. The source made the active and inactive calls. Calls follow the shape of the dose curve; as a rule, active = well fitted inhibition curve with a large enough effect; inconclusive = small, poorly fitted or top-dose-only effect; inactive = flat fitted curve, though single readings scatter.
Respond using exactly one of the listed classes: true (1) = active, false (0) = inactive

I'd appreciate the recorded outcome for COc1cc(C(=O)NS(=O)(=O)c2ccccc2C)ccc1Cc1cn(C)c2ccc(NC(=O)OC3CCCC3)cc12 from this test.
true (1)

# repeat for O=C(NC1CCNCC1)c1[nH]ncc1NC(=O)c1c(Cl)cccc1Cl
true (1)

# repeat for Cc1cc(Nc2cc(NC(=O)c3c(Cl)cccc3Cl)ccn2)nc(N)n1
true (1)

# repeat for CC(=O)OCC(=O)[C@@]1(O)[C@H](C)C[C@H]2[C@@H]3C=C(C)C4=Cc5c(cnn5-c5ccccc5)C[C@]4(C)[C@@H]3[C@@H](O)C[C@@]21C
false (0)

# repeat for COc1cc2c(Oc3ccc4[nH]c(C)cc4c3F)ncnc2cc1OCCCN1CCCC1
false (0)

# repeat for CCN(CC)CCNC(=O)c1ccc2nc(-c3ccccc3)c(-c3ccc(CN4CCC(n5c(=O)[nH]c6ccccc65)CC4)cc3)nc2c1
true (1)

# repeat for Cn1cc(-c2[nH]c3cc(NC(=O)[C@H](N)C4CCCCC4)cc4c3c2C=NNC4=O)cn1
true (1)

# repeat for O=C(Cc1ccc(-c2ccc(OCCN3CCOCC3)cc2)cn1)NCc1ccccc1
true (1)

# repeat for CC(=O)Nc1sc2c(c1-c1nc3ccccc3s1)CNC2
true (1)

Value source: PubChem BioAssay (NCATS)
